Provenance of the data: the RNAGym collection of RNA variant scans (doi:10.1073/pnas.2313332121)

B1: TPR 5TU (parent)
chain: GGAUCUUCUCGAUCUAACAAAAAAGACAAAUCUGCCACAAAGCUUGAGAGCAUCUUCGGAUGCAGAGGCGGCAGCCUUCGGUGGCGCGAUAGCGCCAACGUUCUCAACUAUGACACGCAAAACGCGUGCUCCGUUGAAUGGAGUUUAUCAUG

Variants of: B1
Test: polymerase ribozyme fitness, log enrichment relative to wild type (log ratio); higher = more active; in vitro selection for triplet polymerase activity
This sample holds only a part of the variants without activity.
READOUT_NAME: polymerase ribozyme fitness (log ratio)

{"columns": ["MUTATION_LIST", "READOUT_NAME", "VALUE_OBSERVED"],
 "data": [
  ["A17U C93U C114A C116G", "polymerase ribozyme fitness (log ratio)", "≤ -4.2"],
  ["A73C G92A U101G", "polymerase ribozyme fitness (log ratio)", "≤ -4.2"],
  ["G71A", "polymerase ribozyme fitness (log ratio)", -2.47],
  ["G11A A73G G92A A121G", "polymerase ribozyme fitness (log ratio)", "≤ -4.2"],
  ["A22C A52G G71A C79G C87G C99G C114G U127G C129A A142C", "polymerase ribozyme fitness (log ratio)", "≤ -4.2"],
  ["C35G A37C A52G G86U A97G", "polymerase ribozyme fitness (log ratio)", -4.2],
  ["C10U A23U U33G C96G A115C", "polymerase ribozyme fitness (log ratio)", "≤ -4.2"],
  ["A30U G50C", "polymerase ribozyme fitness (log ratio)", "≤ -4.2"],
  ["C5G C54A G65C A66G C85U", "polymerase ribozyme fitness (log ratio)", "≤ -4.2"],
  ["A26U A73U G74U C96A", "polymerase ribozyme fitness (log ratio)", "≤ -4.2"],
  ["A12C C87U A115C", "polymerase ribozyme fitness (log ratio)", -1.97]
]}
